target_or_system: F508delCFTR (Homo sapiens, UniProt P13569, DEL508-508)
Construct: expressed in transfected cells; host or cells: CFBE41o- (human lung derived epithelial cell line), doxycycline-inducible expression
Sequence (P13569 with tags, fused parts or gaps DEL508-508): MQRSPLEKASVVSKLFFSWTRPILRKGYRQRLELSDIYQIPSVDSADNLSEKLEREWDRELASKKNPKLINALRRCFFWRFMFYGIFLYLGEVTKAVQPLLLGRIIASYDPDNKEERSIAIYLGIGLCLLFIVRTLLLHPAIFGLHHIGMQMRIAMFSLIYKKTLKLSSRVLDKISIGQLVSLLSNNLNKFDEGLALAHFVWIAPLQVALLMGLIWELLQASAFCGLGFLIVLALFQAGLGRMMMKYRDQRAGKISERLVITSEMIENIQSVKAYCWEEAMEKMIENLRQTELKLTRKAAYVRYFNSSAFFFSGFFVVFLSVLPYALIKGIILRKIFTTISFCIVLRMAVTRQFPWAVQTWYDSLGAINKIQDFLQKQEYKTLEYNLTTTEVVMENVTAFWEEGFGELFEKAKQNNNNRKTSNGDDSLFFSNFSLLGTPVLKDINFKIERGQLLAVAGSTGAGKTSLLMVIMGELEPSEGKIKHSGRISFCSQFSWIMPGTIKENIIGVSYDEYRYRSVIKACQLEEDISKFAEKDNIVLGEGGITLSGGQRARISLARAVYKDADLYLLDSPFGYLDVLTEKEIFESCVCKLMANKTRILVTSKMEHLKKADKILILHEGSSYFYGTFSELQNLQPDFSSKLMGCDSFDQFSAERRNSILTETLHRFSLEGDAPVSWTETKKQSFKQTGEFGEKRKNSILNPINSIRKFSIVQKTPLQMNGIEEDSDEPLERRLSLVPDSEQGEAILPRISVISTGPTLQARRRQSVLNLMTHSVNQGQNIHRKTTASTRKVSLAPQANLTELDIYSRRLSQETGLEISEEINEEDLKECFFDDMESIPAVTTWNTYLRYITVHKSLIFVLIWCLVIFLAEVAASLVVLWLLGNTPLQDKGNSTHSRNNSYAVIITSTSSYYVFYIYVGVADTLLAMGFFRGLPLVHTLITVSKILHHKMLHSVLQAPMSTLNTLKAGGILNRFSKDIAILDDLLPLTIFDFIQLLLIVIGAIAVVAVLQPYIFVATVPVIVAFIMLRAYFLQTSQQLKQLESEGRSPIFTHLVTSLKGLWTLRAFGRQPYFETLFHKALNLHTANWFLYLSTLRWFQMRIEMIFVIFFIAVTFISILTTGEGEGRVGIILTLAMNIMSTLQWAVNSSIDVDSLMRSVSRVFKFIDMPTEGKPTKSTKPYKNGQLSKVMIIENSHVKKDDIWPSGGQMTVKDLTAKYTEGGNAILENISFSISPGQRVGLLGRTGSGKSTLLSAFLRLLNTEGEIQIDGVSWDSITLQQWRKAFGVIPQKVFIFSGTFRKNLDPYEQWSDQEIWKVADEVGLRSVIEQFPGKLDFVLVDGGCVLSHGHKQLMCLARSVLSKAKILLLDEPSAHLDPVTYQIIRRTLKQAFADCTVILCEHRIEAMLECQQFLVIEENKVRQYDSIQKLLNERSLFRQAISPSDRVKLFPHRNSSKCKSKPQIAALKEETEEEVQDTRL
test_summary: Cell Surface Expression-Horse Radish Peroxidase (CSE-HRP) assay
Assay type: cell-based
condition_summary: CFBE41o-F508delCFTR-HRP cells; test compound without co-corrector; 18-24 hours at 33° C.; read-out: EC50 (without co-corrector)
Excerpt: Cell Surface Expression-Horse Radish Peroxidase (CSE-HRP) Assay […] The maximum % activity achieved for the test compound either without or with a co-corrector at any tested concentration is presented in Table 1 along with the respective EC50's calculated using the following general sigmoidal curve with variable Hill slope equation (described as Model 42 in the Accelrys® Assay Explorer v3.3 software): y=(a−d)/(1+(x/c)^b)+d […]
pEC50: −log10 of the molar value.
measurement_label: pEC50

These recorded examples may help you get a feel for the data.
compound: COc1ccc(Cl)cc1COC1[C@@H](c2ccccc2)N(C(=O)OC(C)C)[C@@H](C(=O)O)[C@@H]1C(C)(C)C (mixture of isomers) [Example 17]
pEC50: 5.00 to 6.00
--
compound: COc1ncc(C(F)(F)F)cc1CO[C@H]1[C@H](C(C)(C)C)[C@@H](C(=O)O)N(C(=O)C2CCOCC2)[C@H]1c1ccccc1C(C)C [Example 110]
pEC50: 5.00 to 6.00
--
compound: COc1ncc(C(C)(C)C)cc1CO[C@H]1[C@H](C(C)(C)C)[C@@H](C(=O)O)N(C(=O)OC(C)C)[C@H]1c1ccccc1 [Example 63]
pEC50: 5.00 to 6.00
--
compound: CCc1ccccc1[C@H]1[C@@H](OCc2cc3cccc(C(F)(F)F)c3o2)[C@H](C(C)(C)C)[C@@H](C(=O)O)N1C(=O)[C@@H]1CCCCO1 [Example 292]
pEC50: 5.00 to 6.00
--
compound: COc1ccc(C2(C)CCC2)cc1CO[C@H]1[C@H](C(C)(C)C)[C@@H](C(=O)O)N(C(=O)OC(C)C)[C@H]1c1cccnc1OC(C)C [Example 246]
pEC50: 5.00 to 6.00

Dear reader, for each entry below, please note its pEC50.
1. COc1ncc(C(F)(F)F)cc1CO[C@H]1[C@H](C(C)(C)C)[C@@H](C(=O)O)N(C(=O)[C@@H]2CCCCO2)[C@H]1c1cccc(Cl)c1 [Example 123]
2. [2H]C([2H])(O[C@H]1[C@H](C(C)(C)C)[C@@H](C(=O)O)N(C(=O)[C@@H]2CCCCO2)[C@H]1c1ccccc1C)c1cc(C(C)(C)C)ccc1OC [Example 235]
3. COc1ncc(C2CCC2)cc1CO[C@H]1[C@H](C(C)(C)C)[C@@H](C(=O)O)N(C(=O)[C@@H]2CCCCO2)[C@H]1c1ccccc1C(C)C [Example 176]
4. COc1ccc(C(C)(C)C#N)cc1CO[C@H]1[C@H](C(C)(C)C)[C@@H](C(=O)O)N(C(=O)[C@@H]2CCCCO2)[C@H]1c1ccccc1C [Example 187]
5. COc1ncc(C(F)(F)F)cc1CO[C@@H]1[C@H](C(C)(C)C)[C@@H](C(=O)O)N(C(=O)[C@@H]2CCCO2)[C@H]1c1ccccc1Br [Example 126]

1: 5.00 to 6.00; 2: > 6.00; 3: 5.00 to 6.00; 4: 5.00 to 6.00; 5: < 5.00
